Test: label from the status in PepcDB records;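 also: failed if final PepcDB status was selected cloned or expressed and not failed if soluble or beyond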
Measurement Label: protein production

1) MDRLNQIQIILVETSLSANIGSAARAMKTMGLSNLRLVRPKNPLDEQATALAAGAKNILDNAQIFNTFDAAIADCQLIIGTSARLRHLQSTLVEPRECGKLIINNTNQHKIALIFGRERIGLTNEELLKCHYHLNVPTNPEYESLNLAMAVQLACYEIRMAWLELQKKPIIQPLTEEKNYPTAAAMAHFFDHTERLYKELGFIRNDAVMLKLRRLYQRAKLEENELNLLRGMLTAVEKHRIS: failed
2) MINRDFIISFIVVTCIIYLIYVCYGKYLEKKQIYLKTLTIFLIIEVLRRIFIYGKVNNRLISGLSFIQLIFLGISVAMYGLMYFKNNLS: failed
3) MKKKLKLTSLLGLSLLIMTACATNGVTSDITAESADFWSKLVYFFAEIIRFLSFDISIGVGIILFTVLIRTVLLPVFQVQMVASRKMQEAQPRIKALREQYPGRDMESRTKLEQEMRKVFKEMGVRQSDSLWPILIQMPVILALFQALSRVDFLKTGHFLWINLGSVDTTLVLPILAAVFTFLSTWLSNKALSERNGATTAMMYGIPVLIFIFAVYAPGGVALYWTVSNAYQVLQTYFLNNPFKIIAEREAVVQAQKDLENRKRKAKKKAQKTK: failed
4) MSIEIRKLSIEDLETLIEVARESWKWTYAGIYSEEYIESWIREKYSKEKLLNEIVRSQSNLDILFLGAFADSTLIGFIELKIIANKAELLRLYLKPEYTHKKIGKTLLLEAEKIMKKKGILECRLYVHRQNSVGFSFYYKNGFKVEDTDGSDFIMEKKY: not failed
5) MTYLVTGATGGLGGYALNYLKELVPMTDIYALVRSEEKGADLKAAGFNIRIGDYSDAESMKQAFAGIDRVLFVSGAPGNRQVEHENVVNTAKEAGVSYIAYTSFADADNSTSALAADHIFTEKVIEKSGIEHTFLRNNWYFENEMPMIGGALNGGKFVYAAGNGKTGWALKREYAEVAAKAVAGARFPEILELSGPVMTYAELTEALKEATGKDFEVISSDDKGFVENLVNVGMPQPVAEMFLSFQHDIKNNQLDVTSGDFEKALGKPLTNRVDALRELLQ: failed
6) MGKKYEIFLNENEHSLITPKVSFKEILRYYYLYPKNAIPSFKLPFFKPDLSGFSTPHITWLGHSSLFISFKEYKILIDPIFNTHASPISFINKAFKNAPVYNINDFNEIFAVIITHSHFDHLDAKSVKALKDKAKFFITPLKVGNYLKSYGVSEKKIIELDWWSGIEFGDLKIMATPAQHSSSRGDGKNKTLWASFVMEFLSVDKRVFFSADGGYFTHFKKIGEYFGSFDLACLESGQFNIAWPYSHSFPEQILKEAKDLNAKAVMPIHWGRFLAGTHAWNEVVKFLYENLDLPLITPKMGEAYEVGAKLEHHHHHH: not failed
